System: MDA-MB-468 breast
Experiment: NCI-60 one-dose screen, 48 h (100 = growth as untreated, 0 = no growth, -100 = all killed)
Conditions: 10 µM unless noted
Method: Growth inhibition of the MDA-MB-468 human Breast tumor cell line is measured as a screen for anti-cancer activity. Cells are grown in 96 well plates and exposed to the test compound for 48 hours. Compounds are tested at a single concentration, which is 10^-5 M for most compounds. The reported endpoint is percent growth (GI% or GIPRCNT), where numbers from 0 - 100% represent growth inhibition, and numbers from -100% - 0 represent cell death. […]
This is part of a sample that, as a whole, favours compounds with a hit. Of some 83,000 tested, about 20% had one in any assay.
The following molecules are shown together with reported growth values.
property_name: growth (%)

{"smi": "COc1ccc(-c2nc3cc(Cl)c(Cl)cc3n2CC(=O)N=Nc2c(O)[nH]c3ccccc23)cc1", "property_name": "growth", "result_units": "%", "quantitative_readout": 60.6}
{"smi": "CCCCNC(=O)c1ccccc1C", "property_name": "growth", "result_units": "%", "quantitative_readout": 82.3}
{"smi": "O=C(N/N=C/c1ccccc1O)c1ccccc1", "property_name": "growth", "result_units": "%", "quantitative_readout": 12.1}
{"smi": "O=C(Cn1cc(CN2C(=O)c3ccc([N+](=O)[O-])cc3C2=O)nn1)Nc1ccc(F)cc1Cl", "property_name": "growth", "result_units": "%", "quantitative_readout": 97.9}
{"smi": "CCOC(=O)c1cc2c(n1Cc1cc(OC)cc(OC)c1Br)-c1nc(NC(C)=O)sc1CCC2", "property_name": "growth", "result_units": "%", "quantitative_readout": 77.7}
{"smi": "COc1ccc(-c2nnc(SC/C(=N\\O)c3ccccc3)o2)cc1", "property_name": "growth", "result_units": "%", "quantitative_readout": 97}
{"smi": "O=C(Nc1cc(F)cc2cccnc12)c1cnc(N2CCNCC2)cn1", "property_name": "growth", "result_units": "%", "quantitative_readout": -5.12}
{"smi": "COC(=O)c1nc(N)nc(C(=O)OC)c1C(=O)c1cccc2ccccc12", "property_name": "growth", "result_units": "%", "quantitative_readout": 97.6}
{"smi": "C=C1C(=O)O[C@H]2[C@H]1CC/C(CNC(=O)/C=C/c1ccccc1)=C\\CC[C@@]1(C)O[C@@H]21", "property_name": "growth", "result_units": "%", "quantitative_readout": -30.2}
{"smi": "Clc1cccc(Cc2cn3cc(-c4ccccc4)nc3s2)c1", "property_name": "growth", "result_units": "%", "quantitative_readout": 44.3}
